Data origin, for the record: PubChem BioAssay AID1159580

- METHOD DESCRIPTION: chemical genetic growth profiling, strain panel (AID 1159580);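 also: tested at 20 µM; growth read once vehicle control cultures reached saturation at 30 °C; lower values mean less growth of the strain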
- EXPERIMENTAL PARAMETERS: S. cerevisiae deletion strains, growth OD, locus YJL187C, strain SWE1 (second series)
Out of some 5,500 compounds screened, about 2,000 (36%) were called active. About 18% were inconclusive and are not listed. Rule as the data show it: active = normalized growth mostly below about 0.91 (no sharp cut-off); inconclusive = no clear call, values can overlap the other calls; inactive = mostly above about 0.92. This is one part of the list.
Please answer using one outcome listed in active, inactive

O=c1c(O)c(-c2ccccc2)oc2ccc3occc3c12 = active
COc1cc([C@@H]2c3cc4c(cc3[C@H](O)[C@H]3COC(=O)[C@H]23)OCO4)cc(OC)c1OC = inactive
CC(C)=CCC/C(C)=C/CO = inactive
O=c1c(O)c(-c2ccccc2)oc2cc(O)ccc12 = active
C/C(=C\CO)CC[C@H](C)CCC[C@H](C)CCCC(C)C = inactive

Continue with the next compound.
Task: Recorded test outcome, item O=c1c(O)cccc2cc(O)c(O)c(O)c12
Result: active
